Test system: NCI-H460 tumor-bearing mice (lung cancer)
Experiment: Biodistribution: lutetium accumulation in tumor, plasma and healthy tissues by ICP-MS
Type: in vivo
Settings: second table; tumor; 24 h
Protocol: Lutetium accumulation was measured in tumor, plasma and healthy tissues of NCI-H460 tumor-bearing mice (lung cancer). NCJ-H460 tumor bearing mice were dosed with 0.5 mg/kg of lutetium conjugates. At the time points indicated, mice were sacrificed and tumor, liver, kidneys and plasma were taken. All tissues were analyzed for lutetium content by ICP-MS, and lutetium uptake in % ID/g determined by the following equation: […]
readout: Tumor uptake, % ID/g, 24 h (% ID/g)
Give just the number in % ID/g; leave the unit off.

Known Tumor uptake, % ID/g, 24 h results, listed for orientation:
{"molecule": "CCNC(=O)c1nnc(-c2cc(C(C)C)c(O)cc2O)n1-c1ccc(C2CCN(C(=O)CCOCCOCCOCCOCCOCCOCCOCCOCCOCCOCCOCCOCCNC(=O)CN3CCN4CCN5CCN(CC3)CC(=O)[O][Lu]([O]C(=O)C4)[O]C(=O)C5)CC2)cc1", "Tumor uptake, % ID/g, 24 h, % ID/g": 3.32}
{"molecule": "CCNC(=O)c1nnc(-c2cc(C(C)C)c(O)cc2O)n1-c1ccc(CN2CCN(C(=O)CCOCCOCCOCCOCCNC(=O)CN3CCN4CCN5CCN6CC(=O)O[C]6(C3)[Lu]([O]C(=O)C4)[O]C(=O)C5)CC2)cc1 (stereo not shown)", "Tumor uptake, % ID/g, 24 h, % ID/g": 1.167}
{"molecule": "CCNC(=O)c1nnc(-c2cc(C(C)C)c(O)cc2O)n1-c1ccc(CC2CCN(C(=O)CCOCCOCCOCCOCCOCCOCCOCCOCCOCCOCCOCCOCCNC(=O)[C@H](CCCCNC(=O)CCCc3ccc(I)cc3)NC(=O)CN3CCN4CCN5CCN(CC3)CC(=O)[O][Lu]([O]C(=O)C4)[O]C(=O)C5)CC2)cc1", "Tumor uptake, % ID/g, 24 h, % ID/g": 17.36}
{"molecule": "CCNC(=O)c1nnc(-c2cc(C(C)C)c(O)cc2O)n1-c1ccc(OC2CCN(C(=O)CCNC(=O)[C@@H](CCC(=O)N3CCC(Oc4ccc(-n5c(C(=O)NCC)nnc5-c5cc(C(C)C)c(O)cc5O)cc4)CC3)NC(=O)CCOCCOCCOCCOCCNC(=O)CN3CCN4CCN5CCN(CC3)CC(=O)[O][Lu]([O]C(=O)C4)[O]C(=O)C5)CC2)cc1", "Tumor uptake, % ID/g, 24 h, % ID/g": 8.776}
{"molecule": "CCNC(=O)c1nnc(-c2cc(C(C)C)c(O)cc2O)n1-c1ccc(C2CCN(C(=O)CCOCCOCCOCCOCCNC(=O)CN3CCN4CCN5CCN(CC3)CC(=O)[O][Lu]([O]C(=O)C4)[O]C(=O)C5)CC2)cc1", "Tumor uptake, % ID/g, 24 h, % ID/g": 1.95}
{"molecule": "CC(C)c1cc(-c2nnc(O)n2-c2ccc(OC3CCN(C(=O)CCOCCOCCOCCOCCNC(=O)CN4CCN5CCN6CCN(CC4)CC(=O)[O][Lu]([O]C(=O)C5)[O]C(=O)C6)CC3)cc2)c(O)cc1O", "Tumor uptake, % ID/g, 24 h, % ID/g": 0.71}

Next, consider the following molecule.
Report Tumor uptake, % ID/g, 24 h for CCNC(=O)c1nnc(-c2cc(C(C)C)c(O)cc2O)n1-c1ccc(CN2CCN(C(=O)C[C@H](NC(=O)CCNC(=O)[C@H](CO)NC(=O)[C@H](CO)NC(=O)[C@H](CO)NC(=O)CC[C@H](C(=O)O)N3CCN4CCN5CCN(CC3)CC(=O)[O][Lu]([O]C(=O)C5)[O]C(=O)C4)C(=O)N[C@H](C)C(=O)N3CCN(Cc4ccc(-n5c(C(=O)NCC)nnc5-c5cc(C(C)C)c(O)cc5O)cc4)CC3)CC2)cc1 please.
4.39
